Target: BTK (Homo sapiens, UniProt Q06187)
Sequence (Q06187 402-655 limits assumed): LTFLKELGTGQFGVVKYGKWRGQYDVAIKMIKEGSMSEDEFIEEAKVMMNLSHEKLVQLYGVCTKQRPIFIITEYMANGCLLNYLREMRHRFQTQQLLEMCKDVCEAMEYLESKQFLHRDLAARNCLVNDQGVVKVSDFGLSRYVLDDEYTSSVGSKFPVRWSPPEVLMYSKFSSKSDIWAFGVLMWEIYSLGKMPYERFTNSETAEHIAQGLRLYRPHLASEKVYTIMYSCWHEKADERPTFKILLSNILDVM
Assay: biochemical
Settings: read-out: BTK inhibition (%), 0.75 uM BTK, […] probe 3l, 15 min preincubation
// reported inhibition at 10 µM for each item listed
The answer is to be given in %; state only the numeric part.

Oc1ccc(Cc2nc3c(Cc4ccccc4)nc(-c4ccc(O)cc4)cn3c2O)cc1: 91.1

Please supply the value of reported inhibition at 10 µM for the item CC1(C)CC[C@]2(C(=O)O)[C@H](O)C[C@]3(C)C(=CC[C@@H]4[C@@]5(C)C[C@H](O)[C@H](O)[C@@](C)(CO)[C@@H]5CC[C@]43C)[C@@H]2C1
-10.8

Please list inhibition at 10 µM recorded for the compound C[C@@H](NC(=O)c1ncnc(N)c1Cl)c1ncc(C(=O)Nc2cc(C(F)(F)F)c(Cl)cn2)s1
-12.4

Read off the recorded inhibition at 10 µM for Cc1cccc(Nc2ccccc2C(=O)O)c1C
17.2

Look up and report measured inhibition at 10 µM for this entry: O=C(O)CC(C(=O)O)n1c(O)c(C2=c3cc(Br)ccc3=NC2=O)sc1=S (stereo not shown)
3.1

Supply recorded inhibition at 10 µM for O=c1sn(-c2cccc3ccccc23)c(=O)n1Cc1ccccc1 here.
-12.4

Indicate the recorded inhibition at 10 µM value for this compound: Clc1ccc2c(N3CCN(CCCN4CCN(c5ccnc6cc(Cl)ccc56)CC4)CC3)ccnc2c1
-5.1

Return value of inhibition at 10 µM for input CN1CCN(C(=O)c2cc3cc(Cl)ccc3[nH]2)CC1 , no commentary.
-2.1

State, in one line, measured inhibition at 10 µM of O=C(O)/C=C(/CC(=O)O)C(=O)O
-0.8

Please give measured inhibition at 10 µM of the following entry: CC(=O)OC/C=C(\C)CCC=C(C)C
2.3

Tell us which inhibition at 10 µM value is on record for Cc1ccc2c(c1)c1c(n2CCc2ccc(C)nc2)CCN(C)C1
6.2

Kindly indicate its recorded inhibition at 10 µM. Item: CC(C)(C)c1cc(O)ccc1O
5.5
